- system: T1, human LILRB2 expressed on cells (293T-LILRB2, CHO-K1-LILRB2) (human, UniProt Q8N423 22-597)
- T1 construct: whole, on cells; the cell line is named under assay; also called HEK293T-LILRB2
- T1 sequence (Q8N423 22-597): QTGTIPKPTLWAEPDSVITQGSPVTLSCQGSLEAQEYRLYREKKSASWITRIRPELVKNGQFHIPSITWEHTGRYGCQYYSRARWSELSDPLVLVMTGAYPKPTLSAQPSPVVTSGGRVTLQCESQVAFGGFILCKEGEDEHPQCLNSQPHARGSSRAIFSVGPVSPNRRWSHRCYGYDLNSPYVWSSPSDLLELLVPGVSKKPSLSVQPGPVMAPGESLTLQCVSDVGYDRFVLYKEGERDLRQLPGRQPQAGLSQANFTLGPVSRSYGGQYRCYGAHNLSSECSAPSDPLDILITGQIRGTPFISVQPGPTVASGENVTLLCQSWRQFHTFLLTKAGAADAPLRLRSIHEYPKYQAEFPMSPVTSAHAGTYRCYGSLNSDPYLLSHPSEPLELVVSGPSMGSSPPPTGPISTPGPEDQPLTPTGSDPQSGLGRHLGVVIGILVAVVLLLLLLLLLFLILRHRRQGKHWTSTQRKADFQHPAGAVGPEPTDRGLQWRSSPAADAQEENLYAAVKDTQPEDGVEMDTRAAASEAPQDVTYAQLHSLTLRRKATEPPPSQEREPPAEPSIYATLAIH
- method summary: flow cytometry, His-HLA-A2 tetramer (competitor) bound to 293T-LILRB2 cells, relative to no antibody
- Parameters: concentration or dose not given beside the values
Assign class by % no Ab: not lower than 50% means Yes; lower than 50% means No.

binder	assigned class
Antibody 2E1_GF9 (antibody, V domains shown) VH: EVQLVESGGGLVQPGGSLRLSCAVSGYSITSGYSWNWIRQAPGKGLEWVAYISYDGNNNYNPSLKNRFTISRDTSKNTFYLQMNSLRAEDTAVYYCAREESTMITTAWFAYWGQGTLVTVSS VL: DIQMTQSPSSLSASVGDRVTITCRASETIYSNLAWYQQKPGKAPKLLIYGATNLAAGVPSRFSGSGSGTDYTLTISSLQPEDFATYYCQHFWDTPYTFGQGTKVEIK	No
Antibody 2E1_GD9 (antibody, V domains shown) VH: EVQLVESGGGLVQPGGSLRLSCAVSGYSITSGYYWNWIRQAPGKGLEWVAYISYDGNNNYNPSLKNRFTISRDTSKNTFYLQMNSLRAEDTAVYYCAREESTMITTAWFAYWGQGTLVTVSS VL: DIQMTQSPSSLSASVGDRVTITCRASENIFSNLAWYQQKPGKAPKLLIYGATNLASGVPSRFSGSGSGTDYTLTISSLQPEDFATYYCQHFWDTPYTFGQGTKVEIK	Yes
Antibody 2E1_FF4 (antibody, V domains shown) VH: EVQLVESGGGLVQPGGSLRLSCAVSGYSITSGYYWNWIRQAPGKGLEWVAYISYDGNNWYNPSLKNRFTISRDTSKNTFYLQMNSLRAEDTAVYYCAREESTMITTAWFAYWGQGTLVTVSS VL: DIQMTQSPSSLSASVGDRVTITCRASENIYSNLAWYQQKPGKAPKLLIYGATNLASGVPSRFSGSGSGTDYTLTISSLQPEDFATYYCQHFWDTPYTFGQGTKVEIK	Yes
Antibody 2E1_FC3 (antibody, V domains shown) VH: EVQLVESGGGLVQPGGSLRLSCAVSGYSITSGYYWNWIRQAPGKGLEWVAYISYDGNTNYNPSLKNRFTISRDTSKNTFYLQMNSLRAEDTAVYYCAREESTMITTAWFAYWGQGTLVTVSS VL: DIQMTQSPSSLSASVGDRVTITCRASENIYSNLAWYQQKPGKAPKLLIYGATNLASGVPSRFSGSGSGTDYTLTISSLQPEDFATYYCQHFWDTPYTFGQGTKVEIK	Yes
